Reported Th-T fluorescence, mean of three wells values are given for each entry in this list.
target: Aβ42 (Homo sapiens); experiment: Th-T (thioflavin-T) assay of Aβ42 aggregation; type: biochemical; details: time course, reading M58
Respond with the number and no other words.

INSERT INTO measurements (compound, readout_value) VALUES
  ('C=C1CC[C@H]2[C@]3(C)C[C@H](C=C(C)C)O[C@H]3CC[C@]2(C)[C@@H]1Cc1c(OC)oc(CO)c(C)c1=O [Compound 18]', 4.013),
  ('C=C1CCC2C(C)(CCC=C(C)C)C(=O)CCC2(C)C1Cc1c(O)c(C)c(C)oc1=O (stereo not drawn) [Compound 8]', 2.216),
  ('C=C1CC[C@H]2[C@]3(C)C[C@H](C=C(C)C)O[C@H]3CC[C@]2(C)[C@@H]1Cc1c(OC)oc(C)c(C)c1=O [Compound 24]', 4.119),
  ('C=C1CCC2C(C)(CC(=O)C=C(C)C)C(O)CCC2(C)C1Cc1c(O)c(C)c(C)oc1=O (stereo not drawn) [Compound 7]', 3.607),
  ('C=C1CCC2C(C)(CC(=O)C=C(C)C)C(O)CCC2(C)C1Cc1c(OC)oc(CO)c(C)c1=O (stereo not drawn) [Compound 19]', 3.638);

# input Looking for the measured Th-T fluorescence, mean of three wells of C=C1CC[C@@H]2[C@](C)(CC[C@H]3O[C@H](C=C(C)C)C[C@@]23C)[C@@H]1Cc1c(O)c(C)c(C)oc1=O [Compound 10, higginsianin A] , can you help?
# output 3.098

# input Given C=C1CC[C@H]2[C@]3(C)C[C@@H](C=C(C)C)O[C@H]3CC[C@]2(C)[C@@H]1Cc1c(O)c(C)c(C)oc1=O [Compound 5, subglutinol A] , state its recorded Th-T fluorescence, mean of three wells.
# output 2.694

# input Returns the measured Th-T fluorescence, mean of three wells for the input compound. Input: C=C1CCC2C(C)(CC(=O)C=C(C)C)C(O)CCC2(C)C1Cc1c(OC)oc(C)c(C)c1=O (stereo not drawn) [Compound 25]
# output 3.763

# input Name the recorded Th-T fluorescence, mean of three wells for C=C1CC[C@H]2[C@]3(C)C[C@@H](C=C(C)C)O[C@H]3CC[C@]2(C)[C@@H]1Cc1c(OC)oc(CO)c(C)c1=O [Compound 17] .
# output 3.628

# input Please look up its Th-T fluorescence, mean of three wells: CC(C)=CCC/C(C)=C/CC/C(C)=C/CC/C(C)=C/Cc1c(O)c(C)c(C)oc1=O [Compound 2]
# output 2.915

# input Give the measured Th-T fluorescence, mean of three wells of C=C1CC[C@H]2[C@]3(C)C[C@H](C=C(C)C)O[C@H]3CC[C@]2(C)[C@@H]1Cc1c(O)c(C)c(C)oc1=O [Compound 6, subglutinol B] .
# output 3.154

# input I'd like to know its Th-T fluorescence, mean of three wells. The compound in question is C=C1CCC2C3(C)CC(C=C(C)C)OC3CCC2(C)C1Cc1c(OC)oc(C)c(C)c1=O (stereo not drawn) [Compound 23]
# output 4.031

* * *

test: cytotoxicity in Drosophila l(2)mbn cells; type: cell-based; conditions: Drosophila, l(2)mbn cells (larval blood cell-derived), 4 µM, replicate 2, relative to DMSO 1%, read-out: % viability, viability 2
In this scheme, each record receives a class according to its viability at 4 µM; the ranges are low-valued = under 9%, mid-valued = from 9% up to 90%, high-valued = 90% and over

INSERT INTO measurements (molecule, class_name) VALUES
  ('C=C1CCC2C(C)(CC(=O)C=C(C)C)C(O)CCC2(C)C1Cc1c(OC)oc(CO)c(C)c1=O (stereo not drawn)', 'high-valued'),
  ('C=C1CC[C@H]2[C@]3(C)C[C@H](C=C(C)C)O[C@H]3CC[C@]2(C)[C@@H]1Cc1c(OC)oc(C)c(C)c1=O', 'low-valued'),
  ('C=C1CCC2C(C)(CCC=C(C)C)C(=O)CCC2(C)C1Cc1c(O)c(C)c(C)oc1=O (stereo not drawn)', 'mid-valued'),
  ('C=C1CC[C@H]2[C@]3(C)C[C@@H](C=C(C)C)O[C@H]3CC[C@]2(C)[C@@H]1Cc1c(OC)oc(CO)c(C)c1=O', 'mid-valued');

Continue with the next molecule.
# input Which of the defined bands does the recorded viability at 4 µM of C=C1CCC2C(C)(CCC=C(C)C)C(O)CCC2(C)C1Cc1c(OC)oc(CO)c(C)c1=O (stereo not drawn) sit within?
# output mid-valued

* * *

molecular target: UniProt:P05067; assay: Th-T (thioflavin-T) assay of Aβ42 aggregation; format: biochemical; settings: concentration 20, unit not given; time-course reading M137
molecules and their reported Th-T fluorescence of Aβ42 with compound, mean of three wells (Fig. 7a source data)
When you answer, write just the number.

Examples with answers:
INSERT INTO results (molecule, readout_value) VALUES
  ('C=C1CCC2C(C)(CCC=C(C)C)C(O)CCC2(C)C1Cc1c(OC)oc(C)c(C(=O)OC)c1=O (centres unmarked)', 1.578),
  ('C=C1CCC2C(C)(CCC=C(C)C)C(O)CCC2(C)C1Cc1c(OC)oc(CO)c(C(=O)OC)c1=O (centres unmarked)', 1.027),
  ('C=C1CC[C@@H]2[C@](C)(CC[C@H]3O[C@H](C=C(C)C)C[C@@]23C)[C@@H]1Cc1c(OC)oc(CO)c(C(=O)OC)c1=O', 0.947),
  ('C=C1CC[C@@H]2[C@](C)(CC[C@H]3O[C@H](C=C(C)C)C[C@@]23C)[C@@H]1Cc1c(OC)oc(CO)c(C)c1=O', 3.049);

Then this molecule:
# input Requested read-out: Th-T fluorescence of Aβ42 with compound, mean of three wells (Fig. 7a source data). Entry: C=C1CCC2C(C)(CCC=C(C)C)C(O)CCC2(C)C1Cc1c(OC)oc(CO)c(C)c1=O (centres unmarked)
# output 2.204

* * *

target: Aβ42 (Homo sapiens, UniProt P05067); assay: Th-T (thioflavin-T) assay of Aβ42 aggregation; assay type: biochemical; conditions: time course, reading M65
Sequence (P05067 672-713): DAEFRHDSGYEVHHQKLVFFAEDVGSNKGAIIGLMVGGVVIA
assay-endpoint: Th-T fluorescence, mean of three wells
Lab note: write the figure by itself, no unit.

Here are 5 compounds together with their reported answers.
INSERT INTO results (compound, assay_endpoint, readout_value) VALUES
  ('CC(C)=CCC/C(C)=C/CC/C(C)=C/CC/C(C)=C/Cc1c(O)c(C)c(C)oc1=O', 'Th-T fluorescence, mean of three wells', 2.95),
  ('C=C1CC[C@H]2[C@]3(C)C[C@@H](C=C(C)C)O[C@H]3CC[C@]2(C)[C@@H]1Cc1c(OC)oc(CO)c(C)c1=O', 'Th-T fluorescence, mean of three wells', 3.662),
  ('C=C1CCC2C(C)(CC(=O)C=C(C)C)C(O)CCC2(C)C1Cc1c(OC)oc(CO)c(C)c1=O (stereo not drawn)', 'Th-T fluorescence, mean of three wells', 3.622),
  ('C=C1CCC2C(C)(CC(=O)C=C(C)C)C(O)CCC2(C)C1Cc1c(OC)oc(C)c(C)c1=O (stereo not drawn)', 'Th-T fluorescence, mean of three wells', 3.735),
  ('C=C1CCC2C3(C)CC(C=C(C)C)OC3CCC2(C)C1Cc1c(OC)oc(C)c(C)c1=O (stereo not drawn)', 'Th-T fluorescence, mean of three wells', 3.998);

# input Consider the compound C=C1CCC2C(C)(CC(=O)C=C(C)C)C(O)CCC2(C)C1Cc1c(O)c(C)c(C)oc1=O (stereo not drawn) and give its measured Th-T fluorescence, mean of three wells.
# output 3.572

* * *

target: Aβ42 (Homo sapiens, UniProt P05067); assay: Th-T (thioflavin-T) assay of Aβ42 aggregation; type: biochemical; settings: head suffix _10 (concentration 10); reading M77
Recorded measurements of Th-T fluorescence of Aβ42 (sheet Fig. 7a), mean of three wells, one per entry
Lab note: record the figure alone, no unit after it.

# input Give the measured Th-T fluorescence of Aβ42 (sheet Fig. 7a), mean of three wells of C=C1CCC2C(C)(CCC=C(C)C)C(O)CCC2(C)C1Cc1c(OC)oc(C)c(C(=O)OC)c1=O (centres unmarked) [Compound 14] .
# output 2.827

* * *

test system: HBC-5; assay: cells; set-up: species or system JFCR39 human cancer cell lines; JFCR39 panel growth inhibition, sulforhodamine B total protein after 48 h; conditions: HBC5, 48 h
Items are presented alongside their recorded GI50.
Please give a number only; it is taken to be in µM.

// below: answered compounds
INSERT INTO measurements (compound, readout_value) VALUES
  ('C=C1CC[C@@H]2[C@](C)(CC[C@H]3O[C@H](C=C(C)C)C[C@@]23C)[C@@H]1Cc1c(OC)oc(CO)c(C(=O)OC)c1=O [Compound 21]', 14.7),
  ('C=C1CCC2C(C)(CCC=C(C)C)C(O)CCC2(C)C1Cc1c(OC)oc(CO)c(C(=O)OC)c1=O (stereo not shown) [Compound 13]', 15.1),
  ('C=C1CCC2C(C)(CCC=C(C)C)C(O)CCC2(C)C1Cc1c(OC)oc(C)c(C)c1=O (stereo not shown) [Compound 11]', 13.9);

Okay, next one:
# input Would you kindly share the measured GI50 for C=C1CC[C@@H]2[C@](C)(CC[C@H]3O[C@H](C=C(C)C)C[C@@]23C)[C@@H]1Cc1c(OC)oc(C)c(C)c1=O [Compound 22, O-methylated higginsianin A] ?
# output 7.06
